Reference source for all entries: the supplement of paper PMC6757056

B1: library; a variant is named by its letters at N, in order (parent)
chain: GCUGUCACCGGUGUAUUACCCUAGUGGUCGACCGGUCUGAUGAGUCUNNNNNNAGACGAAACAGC

Variants of: B1
Experiment: normalized RNA/DNA level without ligand (relative to sTRSVctl = 100) (log10 (% of sTRSVctl)); ligand: hypoxanthine (xanthine aptamer); higher = less ribozyme self-cleavage, higher mRNA level
Details: HEK293T, reporter: mCherry (pCS4076), ligand present: no
Reported normalized RNA/DNA level without ligand (log10) by item:
measureName: normalized RNA/DNA level without ligand (log10)

> print(dat)
    variantcode  numericresult
 1       GGAGGG           1.49
 2       CUUGUC           1.98
 3       UAGUGG           1.41
 4       CACCCG           1.91
 5       AAAUCC           1.83
 6       CGAUGC           1.83
 7       GUUAUA           1.83
 8       CUAGCA           1.83
 9       UUCUAU           1.87
10       GGGGUU           1.96
11       GGCUCC            1.9
12       AUGUCC           1.88
13       CGGGCA            1.9
14       AUGAGG           1.15
15       CGACCU           1.92
16       UUUUCG           1.79
17       UACCAC           1.79
18       ACGCUG           1.45
19       UCGGGC           1.99
20       GCAGGA           1.72
21       GGGAAU           1.64
22       UGUUUC           2.02
23       UUUCUA           1.87
24       UAUUAC           1.82
25       UAGACC           1.92
26       CGGGUG            1.7
27       AGAGUC           1.88
28       AGGGUA           1.82
29       GGCGGA           1.84
30       UGAGAA           1.74
31       GUGGAU           1.74
32       CAGCCA           1.78
33       UGGGCC           2.02
34       UGUUCC           1.93
35       UUUCCG           1.83
36       UGGCCA           1.92
37       GAGCGC           1.55
38       GAUCGG           1.59
39       GUGGGA           1.68
40       UAGCGC           1.85
41       AGCACU           1.89
42       UAAGCG            1.6
43       AAGAGU            1.4
44       GGGACC           1.86
45       CCCCUG           1.81
46       CGCCGU              2
